- System: Plasmodium berghei
- Assay Protocol: Screen against P. berghei liver stage (PbLuc), transformed with Luciferase, at 10uM
- Format: functional, HepG2
- Assay Context: tested at 10 uM
Hit rate of the full screen: of about 69,000 compounds, about 8,600 (12%) showed an effect of 50% or more. This excerpt belongs to a sample that is enriched for strong results.

Molecule: COCCN1CCC2(COCc3cnc(N4CCOCC4)nc32)C1 (centres undefined)
INHIBITION / %: 52.3
//
Molecule: NC(=O)c1ccc(C2CCCN2C(=O)CCn2nnc3ccccc32)s1 (centres undefined)
INHIBITION / %: 7.6
//
Molecule: Cc1nc(C)n(CC2CCCN2CC(=O)NCCc2ccccc2)n1 (centres undefined)
INHIBITION / %: 9.54
//
Molecule: Cc1nc(C)n(CC2CCCN(CCOc3ccc(F)cc3)C2)n1 (centres undefined)
INHIBITION / %: 4.52
//
Molecule: c1cnc(NCc2cncc3c2CCN(Cc2ccoc2)C3)nc1
INHIBITION / %: 19.4
//
Molecule: Cc1cnc2c(c1NCc1ccc3c(c1)OCO3)c(=O)n(C)c(=O)n2C
INHIBITION / %: 73.3
//
Molecule: c1nc(N2CCOCC2)nc2c1COCC21CCN(CC2CC2)C1 (centres undefined)
INHIBITION / %: -7.59
//
Molecule: CCC(c1ccccc1)N1CCN(CCO)CC1 (centres undefined)
INHIBITION / %: 52.1
//
Molecule: CCOC(=O)c1nc(COc2c(C)occc2=O)no1
INHIBITION / %: 41.7
//
Molecule: Cc1nn(C)c(N2CCOCC2)c1CNCc1ccc2c(c1)OCO2
INHIBITION / %: 7.67
//
Molecule: Cc1cc(N2CCC(CC(N)=O)CC2)nc(-c2ccncc2)n1
INHIBITION / %: 16.1
//
Molecule: c1cnc(NCc2cncc3c2CCN(Cc2ccsc2)C3)nc1
INHIBITION / %: 60.2
//
Molecule: Cc1ccc(N2CCCN(C(=O)CCc3nccs3)CC2)nn1
INHIBITION / %: 3.73
//
Molecule: Cc1n[nH]c(C)c1-c1nccnc1CC1CCCN(C)C1 (centres undefined)
INHIBITION / %: 23.2
//
Molecule: Cc1cnc2c(c1NCc1cccnc1)c(=O)n(C)c(=O)n2C
INHIBITION / %: 71.8
//
Molecule: CCC(c1ccc(F)cc1F)N1CCN(CCO)CC1 (centres undefined)
INHIBITION / %: 48.1
//
Molecule: CCOc1cncc(N2CCN(c3ccccc3F)CC2)n1
INHIBITION / %: 3.77
//
Molecule: c1cnc(N2CCC3(COCc4cnc(N5CCOCC5)nc43)C2)nc1 (centres undefined)
INHIBITION / %: 68.3
//
Molecule: O=C(CC1CC1)N1C[C@@H](O)[C@H](N2CCN(c3ccccc3)CC2)C1
INHIBITION / %: 30.25
//
Molecule: CN(C)CCn1nc(C2CCN(S(=O)(=O)N(C)C)C2)c2cccnc21 (centres undefined)
INHIBITION / %: 6.33
//
Molecule: Cc1cnc2c(c1NCc1ccncc1)c(=O)n(C)c(=O)n2C
INHIBITION / %: -14.6
//
Molecule: c1cnc(NCc2cncc3c2CCN(Cc2cccs2)C3)nc1
INHIBITION / %: -38.7
//
Molecule: O=C(CCOc1ccccc1F)N1CCCC(n2cncn2)C1 (centres undefined)
INHIBITION / %: 36.065
//
Molecule: c1cnc(NCc2cncc3c2CCN(Cc2cccnc2)C3)nc1
INHIBITION / %: 12.4
//
Molecule: CSCCC(=O)N1CC[C@@H](N2CCN(c3ccccc3F)CC2)[C@H](O)C1
INHIBITION / %: 48.9
//
Molecule: CC(C)(C)c1nnc2n1C(C(=O)N1CCCC1)CC2 (centres undefined)
INHIBITION / %: 21.7
//
Molecule: O=S(=O)(C1CC1)N1CCC2(COCc3cnc(N4CCOCC4)nc32)C1 (centres undefined)
INHIBITION / %: -8.69
//
Molecule: CCn1cc(-c2cc(-c3cc(CN(C)C)cs3)nc(N)c2C#N)c(C)n1
INHIBITION / %: 76.6
//
Molecule: O=C1COC2(CCN(c3ccccn3)CC2)CN1Cc1ccccn1
INHIBITION / %: 16.6

// data source = ChEMBL document CHEMBL4513216
